Tested on: T47D
Assay: Antiproliferative activity against human T47D cells harboring ERalpha D538G mutant assessed as inhibition of cell proliferation incubated for 72 hrs by CCK8 assay
Type: functional, cell-based
property.name: IC50 (µM)

Worked examples follow.
CCN(c1ccc(OC)cc1)S(=O)(=O)C1CC2OC1C(c1ccc(NC(=O)CCCCC[Se]C#N)cc1)=C2c1ccc(O)cc1 (stereo unspecified) ... 4.76
N#C[Se]CCCCCC(=O)Nc1ccc(C2=C(c3ccc(O)cc3)C3CC(S(=O)(=O)N(CC(F)(F)F)c4ccccc4)C2O3)cc1 (stereo unspecified) ... 17.4
CCN(c1cccc(F)c1)S(=O)(=O)C1CC2OC1C(c1ccc(NC(=O)CCCCC[Se]C#N)cc1)=C2c1ccc(O)cc1 (stereo unspecified) ... 2.37
N#C[Se]CCCCCC(=O)Nc1ccc(C2=C(c3ccc(O)cc3)C3CC(S(=O)(=O)Oc4ccccc4F)C2O3)cc1 (stereo unspecified) ... 1.47
CCN(c1ccc(OC)cc1)S(=O)(=O)C1CC2OC1C(c1ccc(NC(=O)CCCCCCC[Se]C#N)cc1)=C2c1ccc(O)cc1 (stereo unspecified) ... 7.35
COc1ccc(N(CC(F)(F)F)S(=O)(=O)C2CC3OC2C(c2ccc(NC(=O)CCCCC[Se]C#N)cc2)=C3c2ccc(O)cc2)cc1 (stereo unspecified) ... 3.96

[I] N#C[Se]CCCCCC(=O)Nc1ccc(C2=C(c3ccc(O)cc3)C3CC(S(=O)(=O)N(CC(F)(F)F)c4ccc(F)cc4)C2O3)cc1 (stereo unspecified)
[II] CCN(c1ccc(OC)cc1)S(=O)(=O)C1CC2OC1C(c1ccc(NC(=O)CCC[Se]C#N)cc1)=C2c1ccc(O)cc1 (stereo unspecified)
Could you tell me which of I and II has the lower IC50 reading? Label of pick, please.
I
(I: 2.71 µM, II: 8.97 µM)

[P] CCN(c1ccccc1F)S(=O)(=O)C1CC2OC1C(c1ccc(NC(=O)CCCCC[Se]C#N)cc1)=C2c1ccc(O)cc1 (stereo unspecified)
[Q] N#C[Se]CCCCCC(=O)Nc1ccc(C2=C(c3ccc(O)cc3)C3CC(S(=O)(=O)N(CC(F)(F)F)c4ccc(Cl)cc4)C2O3)cc1 (stereo unspecified)
[R] COc1ccc(N(CC(F)(F)F)S(=O)(=O)C2CC3OC2C(c2ccc(NC(=O)CCCCCCC[Se]C#N)cc2)=C3c2ccc(O)cc2)cc1 (stereo unspecified)
[S] CCN(c1cccc(OC)c1)S(=O)(=O)C1CC2OC1C(c1ccc(NC(=O)CCCCC[Se]C#N)cc1)=C2c1ccc(O)cc1 (stereo unspecified)
Exam item: list the entries in increasing order of IC50. Please list each label once, in the requested order.
P, Q, R, S
(P: 3 µM, Q: 5.11 µM, R: 12.7 µM, S: 19.8 µM)
